- Tested on: Staphylococcus aureus
- Experimental protocol: Antibacterial activity against Staphylococcus aureus Newman
- Type: functional
Metric name: MIC

Request: Which MIC value is on record for CON=C(c1cccc(C(F)(F)F)c1)c1cc2c(cc1C(C)C)CC[C@H]1[C@](C)(C(=O)O)CCC[C@]21C ?
Result: 1.56 to 3.13 µg/mL

Request: Please answer likewise for CCCC(=NO)c1cc2c(cc1C(C)C)CC[C@H]1[C@](C)(C(=O)O)CCC[C@]21C
Result: 40 to 50 µg/mL

Request: How about this compound: C#CCON=C(CC)c1cc2c(cc1C(C)C)CC[C@H]1[C@](C)(C(=O)O)CCC[C@]21C
Result: 20 to 25 µg/mL

Request: Repeat with C#CCON=C(c1cc2c(cc1C(C)C)CC[C@H]1[C@](C)(C(=O)O)CCC[C@]21C)C1CCCCC1
Result: > 50 µg/mL

Request: # iterate: C#CCON=C(CCC)c1cc2c(cc1C(C)C)CC[C@H]1[C@](C)(C(=O)O)CCC[C@]21C
Result: 15 to 20 µg/mL

Request: Repeat for the following compound: CCCC(=NOCc1ccccc1)c1cc2c(cc1C(C)C)CC[C@H]1[C@](C)(C(=O)O)CCC[C@]21C
Result: > 50 µg/mL

* * *

For each record, write down the corresponding MIC.
- Test system: Staphylococcus aureus
- Experimental protocol: Antibacterial activity against gentamicin-resistant Staphylococcus aureus NRS-108
- Assay type: functional

Request: Need MIC, item C#CCON=C(c1cc2c(cc1C(C)C)CC[C@H]1[C@](C)(C(=O)O)CCC[C@]21C)c1ccccc1C(F)(F)F
Result: > 25 µg/mL

Request: How about C#CCON=C(c1ccccc1)c1cc2c(cc1C(C)C)CC[C@H]1[C@](C)(C(=O)O)CCC[C@]21C ?
Result: 3.13 to 6.25 µg/mL

Request: // next record CC(C)c1cc2c(cc1C(=NO)c1ccccc1C(F)(F)F)[C@@]1(C)CCC[C@@](C)(C(=O)O)[C@@H]1CC2
Result: 1.56 to 3.13 µg/mL

Request: Subsequent entry: CN(C)[C@@H]1C(O)=C(C(N)=O)C(=O)[C@@]2(O)C(O)=C3C(=O)c4c(O)cccc4[C@@](C)(O)[C@H]3C[C@@H]12
Result: < 0.2 µg/mL
